molecular target: UniProt:Q13627; test: Inhibition of recombinant DYRK1A (unknown origin) using Ser/Thr 18 peptide as substrate incubated for 1 hr in presence of ATP by FRET assay
pEC50: −log10 of the molar value.
Kindly return true (1) if reported pEC50 is no lower than 8; return false (0) if it is lower.

# smiles_entry, class_label
rows = [
    ("CC(C)CC(=O)Nc1cncc(-c2ccc3[nH]nc(-c4nc5c(-c6ccc(F)cc6)cncc5[nH]4)c3c2)c1", "false (0)"),
    ("COc1cccc(-c2ccnc3[nH]c(-c4n[nH]c5ccc(-c6cccnc6)nc45)nc23)c1", "false (0)"),
    ("CN(C)CCOc1cncc(-c2ccc3[nH]nc(-c4nc5c(-c6cccs6)cccc5[nH]4)c3n2)c1", "false (0)"),
    ("CN1CCN(c2ccnc3[nH]c(-c4n[nH]c5ccc(-c6cncc(N)c6)nc45)nc23)CC1", "false (0)"),
]

Data request: Is reported pEC50 greater than or equal to 8 here: "CC(C)Nc1cncc(-c2ccc3[nH]nc(-c4cc5c(-c6cccnc6)ccnc5[nH]4)c3n2)c1"
Data returned: false (0)

Data request: Query "c1cncc(-c2ccnc3[nH]c(-c4n[nH]c5cnc(-c6cncnc6)cc45)cc23)c1" next
Data returned: false (0)

Data request: // next record "Oc1cncc(-c2ccc3[nH]nc(-c4nc5c(-c6cccc(F)c6)nccc5[nH]4)c3n2)c1"
Data returned: false (0)

Data request: Input "O=C(Nc1ccc(CN2CCCC2)cc1)c1n[nH]c2ccc(-c3cccnc3F)cc12"
Data returned: true (1)

Data request: Consider next the compound "Fc1cccc(-c2cncc3[nH]c(-c4n[nH]cc4C#Cc4cncc(OC5CCNCC5)c4)nc23)c1" in the same way.
Data returned: false (0)

Data request: Another compound to look at: "Nc1cncc(-c2cnc3[nH]nc(-c4cc5c(-c6ccncc6)nccc5[nH]4)c3c2)c1"
Data returned: true (1)

Data request: One more compound: "CC(C)(C)CC(=O)Nc1cncc(-c2cnc3[nH]nc(-c4cc5cnccc5[nH]4)c3c2)c1"
Data returned: true (1)

Data request: Same question for "CN(C)Cc1cncc(-c2cc3c(-c4cc5c(-c6cccc(F)c6)nccc5[nH]4)n[nH]c3cn2)c1" please.
Data returned: false (0)
